What pIC50 was measured for each of the following?
- TESTED_SYSTEM: T1, human α4β7 integrin on cells (human, UniProt P13612 34-1032; P26010 20-798)
- T1 construct: whole, on cells; also called α4β7 cell (Hu); RPMI8866 cells
- METHOD_SUMMARY: RPMI8866 cell adhesion to MAdCAM-1
Bridge positions count the residues as written; N and C are the ends. Square brackets hold non-standard residues; d marks the D form. Phe(4-tBu) = CC(C)(C)c1ccc(C[C@H](N)C(=O)O)cc1; NMeR = CN[C@@H](CCCNC(=N)N)C(=O)O; β3hE = N[C@@H](CCC(=O)O)CC(=O)O; NMeK = CN[C@@H](CCCCN)C(=O)O; Pen = CC(C)(S)[C@H](N)C(=O)O; dNMeK = CN[C@H](CCCCN)C(=O)O
Worth noting: pIC50 values are minus log10 of concentrations stated in mol/L.

Retrieve pIC50 measured for Ac-C[NMeR]SDTL[Pen]W[dK]-NH2 (disulfide 1-7; also: homodimer via DIG linker on D-Lys9 side chains, also called peptide 204) [SEQ ID NO: 204] and print it.
7.66

Retrieve pIC50 measured for XRSDTLXWK (Ac Pen N-Me-R S D T L Pen W k NH2; disulfide Pen-Pen, also called peptide 208) [SEQ ID NO: 208] and print it.
6.39

Retrieve pIC50 measured for Ac-CRSDTLCGE-NH2 (disulfide 1-7 (inferred), also called peptide 194) [SEQ ID NO: 194] and print it.
6.23

Retrieve pIC50 measured for Ac-CRSDTLCGEK-NH2 (disulfide 1-7 (inferred), also called peptide 196) [SEQ ID NO: 196] and print it.
5.18

Retrieve pIC50 measured for Ac-[Pen][NMeR]SDTL[Pen]WE[NMeK]-NH2 (disulfide 1-7; not fully specified; printed as [Ac-Pen-(N-Me-Arg)-Ser-Asp-Thr-Leu-Pen-Trp-Glu-(N-Me-Lys)-NH2]2-DIG; also: homodimer: two identical subunits joined by DIG linker at the Lys10 side chains, each subunit has its own Pen1-Pen7 disulfide, also called peptide 215) [SEQ ID NO: 215] and print it.
8.52

Retrieve pIC50 measured for Ac-CRSDTLCGEK-NH2 (disulfide 1-7 (inferred); also: dimer linked by PEG25, attachment not given here, also called peptide 197) [SEQ ID NO: 197] and print it.
6.52

Retrieve pIC50 measured for XRSDTLXWK ((Ac Pen N-Me-R S D T L Pen W k NH2)2 DIG; disulfide Pen-Pen, also called peptide 209) [SEQ ID NO: 209] and print it.
7.62

Retrieve pIC50 measured for Ac-C[NMeR]SDTL[Pen][dK]-NH2 (disulfide 1-7; SMILES CC(=O)N[C@H]1CSSC(C)(C)[C@@H](C(=O)N[C@H](CCCCN)C(N)=O)NC(=O)[C@H](CC(C)C)NC(=O)[C@H]([C@@H](C)O)NC(=O)[C@H](CC(=O)O)NC(=O)[C@H](CO)NC(=O)[C@H](CCCNC(=N)N)N(C)C1=O) [SEQ ID NO: 202] and print it.
4.96

Retrieve pIC50 measured for Ac-C[NMeR]SDTLCGE-NH2 (disulfide 1-7 (inferred), also called peptide 198) [SEQ ID NO: 198] and print it.
5.95

Retrieve pIC50 measured for Ac-[Pen][NMeR]SDTL[Pen]WE[dK]-NH2 (disulfide 1-7; not fully specified (residue 10); printed as (Ac Pen N-Me-R S D T L Pen W E k NH2)2 DIG, disulfide Pen-Pen; also: dimer, two subunits joined by DIG linker, also called peptide 217) [SEQ ID NO: 217] and print it.
8.49

Retrieve pIC50 measured for Ac-[Pen][NMeR]SDTL[Pen][Phe(4-tBu)][β3hE][dK]-NH2 (disulfide 1-7; not fully specified (residue 10); printed as (Ac Pen N-Me-R S D T L Pen F(4-tBu) b-H-E k NH2)2 DIG, disulfide Pen-Pen; also: dimer, two subunits joined by DIG linker, also called peptide 218) [SEQ ID NO: 218] and print it.
9.11

Retrieve pIC50 measured for Ac-[Pen][NMeR]SDTL[Pen]WE[dNMeK]-NH2 (disulfide 1-7; not fully specified (residue 10); printed as (Ac Pen N-Me-R S D T L Pen W E N-Me-k NH2)2 DIG, disulfide Pen-Pen; also: dimer, two subunits joined by DIG linker, also called peptide 214) [SEQ ID NO: 214] and print it.
8.60

Retrieve pIC50 measured for Ac-C[NMeR]SDTLCGEK-OH (disulfide 1-7 (inferred), also called peptide 199) [SEQ ID NO: 199] and print it.
5.33

Retrieve pIC50 measured for Ac-C[NMeR]SDTL[Pen]E[dK]-NH2 (disulfide 1-7; also: homodimer via DIG linker on D-Lys9 side chains, also called peptide 205) [SEQ ID NO: 205] and print it.
7.59

Retrieve pIC50 measured for Ac-[Pen][NMeR]SDTL[Pen]W[dE][dK]-NH2 (disulfide 1-7; also: dimer, two subunits joined by DIG linker, also called peptide 211) [SEQ ID NO: 211] and print it.
7.66

Retrieve pIC50 measured for Ac-[Pen]RSDTLC[dK]-NH2 (disulfide 1-7; also: homodimer via DIG linker on D-Lys8 side chains, also called peptide 207) [SEQ ID NO: 207] and print it.
7.31
